Record form. Attribute: EC50 group, cGMP in GTM-3 cells. Fill in for each entry.
Biological target: T1, natriuretic peptide receptor-B (human)
T1 chain: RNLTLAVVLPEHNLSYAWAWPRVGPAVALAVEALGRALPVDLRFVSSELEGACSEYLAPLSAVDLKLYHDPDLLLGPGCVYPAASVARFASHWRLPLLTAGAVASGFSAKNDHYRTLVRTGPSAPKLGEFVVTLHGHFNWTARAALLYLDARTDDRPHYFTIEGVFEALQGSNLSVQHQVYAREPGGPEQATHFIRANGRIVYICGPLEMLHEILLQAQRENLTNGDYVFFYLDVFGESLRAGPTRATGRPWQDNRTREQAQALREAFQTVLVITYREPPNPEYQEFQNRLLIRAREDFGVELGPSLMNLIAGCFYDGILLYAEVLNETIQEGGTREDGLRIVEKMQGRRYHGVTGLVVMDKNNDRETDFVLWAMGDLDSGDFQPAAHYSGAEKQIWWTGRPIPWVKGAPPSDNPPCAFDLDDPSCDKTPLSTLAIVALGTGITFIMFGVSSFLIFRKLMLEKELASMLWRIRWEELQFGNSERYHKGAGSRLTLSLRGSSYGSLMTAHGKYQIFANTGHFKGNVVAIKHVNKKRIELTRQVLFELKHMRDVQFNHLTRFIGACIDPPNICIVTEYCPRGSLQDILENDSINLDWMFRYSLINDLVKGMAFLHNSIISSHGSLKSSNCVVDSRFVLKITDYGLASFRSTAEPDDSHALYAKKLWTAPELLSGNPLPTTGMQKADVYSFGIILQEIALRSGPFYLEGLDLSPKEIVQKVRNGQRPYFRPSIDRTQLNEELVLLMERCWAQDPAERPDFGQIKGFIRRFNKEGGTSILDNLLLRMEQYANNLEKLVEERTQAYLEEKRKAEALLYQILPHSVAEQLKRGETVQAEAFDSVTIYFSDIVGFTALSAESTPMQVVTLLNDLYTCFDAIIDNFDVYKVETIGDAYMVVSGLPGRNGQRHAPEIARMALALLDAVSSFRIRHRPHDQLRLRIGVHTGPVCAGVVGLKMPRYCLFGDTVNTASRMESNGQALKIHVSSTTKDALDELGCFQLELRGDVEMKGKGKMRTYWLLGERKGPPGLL
Experiment: cell-based or functional assay
Numbered stars: 1 amine (or outer) side, 2 acyl side, 3 side chain; on linkers, the order of the positions; unused ones are H or OH. Square brackets hold non-standard residues; d marks the D form. Ends that are not written are not given here. * marks the point of attachment. Tap(2Me) = (2S,4R)-4-(dimethylamino)pyrrolidine-2-carboxylic acid, CN(C)[C@@H]1C[C@@H](C(=O)[*:2])N([*:1])C1; Sni = (S)-nipecotic acid, O=C([C@H]1CCCN([*:1])C1)[*:2]; NMeR = CN[C@@H](CCCNC(=N)N)C(=O)O; Hyp = O=C(O)[C@@H]1C[C@@H](O)CN1; AR‑314‑102 = not defined here; NMeL = CN[C@@H](CC(C)C)C(=O)O; Tle = CC(C)(C)[C@H](N)C(=O)O; β3hK = NCCCC[C@H](N)CC(=O)O; Octanoyl = CCCCCCCC(=O)*; Thz = O=C(O)[C@@H]1CSCN1; dAze = O=C(O)[C@H]1CCN1; leu = not defined here; Occ = octanoic acid

[
  {
    "binder": "Octanoyl-AFLL[Hyp][NMeL]D[Thz]I-NH2 (also: lower-case ala, leu: meaning not given here) [JAL-1442]",
    "EC50 group, cGMP in GTM-3 cells": "≤ 5 µM"
  }
]

# map each binder to its EC50 group, cGMP in GTM-3 cells
1. [AR‑314‑102][leu]L[Hyp][NMeL]DRI-NH2 (reading uncertain; also: printed as (AR-314-102)-leu-Leu-Hyp-Nml-Asp-Arg-Ile-NH2) [JAL-1774]
2. Octanoyl-AFRL[Tap(2Me)]LDRI-NH2 (not fully specified (some residues); printed as Occ-ala-Phe-arg-Leu-Tap(2Me)-Leu-Asp-Arg-Ile-NH2) [JAL-1263]
3. [Occ][dAze]FGLPLDRI-NH2 [JAL-0953]
4. [Occ][Sni]FGL[Hyp][NMeL]DRI-NH2 [JAL-1015]
5. Octanoyl-AF[leu]L[Hyp][NMeL]D[β3hK]I-NH2 (not fully specified (some residues); printed as Occ-ala-Phe-leu-Leu-Hyp-Nml-Asp-Bhk-Ile-NH2; reading uncertain) [JAL-1483]
6. Octanoyl-[dA]F[dR]L[Hyp][NMeL]DR[Tle]-NH2 [JAL-1305]

*A*
1. ≤ 1 µM
2. ≤ 5 µM
3. ≤ 5 µM
4. ≤ 5 µM
5. ≤ 5 µM
6. ≤ 1 µM

Provide the reported EC50 group, cGMP in GTM-3 cells of each entry below, same order.
1. [Occ]AXGLPLDRI-NH2 (not fully specified (residues 2, 3); printed as Occ-ala-Nmf-Gly-Leu-Pro-Leu-Asp-Arg-Ile-NH2) [JAL-0906]
2. Octanoyl-AFLL[Hyp][NMeL]D[NMeR]I-NH2 (also: lower-case ala, leu: meaning not given here) [JAL-1417]

*A*
["≤ 15 µM", "≤ 1 µM"]
